# target_of_assay: PIK3CD (Human) (UniProt O00329)
# Sequence (O00329 whole entry, looked up): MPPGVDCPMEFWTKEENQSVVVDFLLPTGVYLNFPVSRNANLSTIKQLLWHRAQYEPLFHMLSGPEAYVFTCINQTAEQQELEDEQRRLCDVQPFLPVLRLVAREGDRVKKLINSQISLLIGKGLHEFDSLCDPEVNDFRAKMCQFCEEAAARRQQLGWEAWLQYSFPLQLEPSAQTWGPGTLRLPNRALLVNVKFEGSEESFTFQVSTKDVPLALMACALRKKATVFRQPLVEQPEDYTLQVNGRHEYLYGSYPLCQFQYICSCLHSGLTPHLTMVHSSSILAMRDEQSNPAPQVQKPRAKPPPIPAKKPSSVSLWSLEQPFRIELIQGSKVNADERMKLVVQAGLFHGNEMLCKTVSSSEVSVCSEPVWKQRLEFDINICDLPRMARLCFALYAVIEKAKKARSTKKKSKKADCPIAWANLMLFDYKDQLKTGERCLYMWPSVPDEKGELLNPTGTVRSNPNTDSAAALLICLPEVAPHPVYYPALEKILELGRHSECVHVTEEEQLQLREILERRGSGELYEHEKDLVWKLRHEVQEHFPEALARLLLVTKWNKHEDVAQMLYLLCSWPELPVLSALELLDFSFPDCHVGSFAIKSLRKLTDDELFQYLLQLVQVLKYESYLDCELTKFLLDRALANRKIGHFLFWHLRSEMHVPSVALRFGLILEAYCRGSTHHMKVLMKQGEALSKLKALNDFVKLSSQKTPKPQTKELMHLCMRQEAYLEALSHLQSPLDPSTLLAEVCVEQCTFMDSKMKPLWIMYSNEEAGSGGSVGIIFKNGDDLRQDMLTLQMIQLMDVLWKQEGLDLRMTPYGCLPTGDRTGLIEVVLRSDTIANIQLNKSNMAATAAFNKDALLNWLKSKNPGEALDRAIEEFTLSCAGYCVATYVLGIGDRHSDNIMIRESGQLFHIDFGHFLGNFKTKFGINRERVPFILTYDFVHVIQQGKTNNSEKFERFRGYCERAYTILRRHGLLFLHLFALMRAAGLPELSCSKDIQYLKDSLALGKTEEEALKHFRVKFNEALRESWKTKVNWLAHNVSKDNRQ
# protocol_details: Enzyme Assay
quantity: pIC50
Keep in mind that pIC50 stands for -log10 of concentration in molar terms.

smiles_record | pIC50
CC1(n2c([C@@H]3CCCN3c3ncnc4[nH]cnc34)nc3cccc(Cl)c3c2=O)CC1 | 8.15
N#Cc1c(N)ncnc1N1C[C@@H](F)C[C@H]1c1nc2cccc(C(F)(F)F)c2c(=O)n1-c1ccccc1 | 8.10

Answer with the recorded pIC50 of "Nc1nc(N2C[C@@H](O)C[C@H]2c2nc3cccc(C(F)(F)F)c3c(=O)n2-c2ccccc2)c2nc[nH]c2n1" only.
7.96
